Attribution: patent US20180355043A1

ECL signal overview
target-desc: T1, DR4G111: Human HLA-DQA1*01:02/DQB1*06:02 ECD with insulin peptide INS_1-15 (human)
T1 construct: also called DQB6:02
measurement-protocol: MSD ECL; antigen coated; mAb 5 µg/ml

{"binder": "DR4B5 (antibody, V domains shown, also called apolizumab (1D10) re-engineered as IgG2sigma) VH: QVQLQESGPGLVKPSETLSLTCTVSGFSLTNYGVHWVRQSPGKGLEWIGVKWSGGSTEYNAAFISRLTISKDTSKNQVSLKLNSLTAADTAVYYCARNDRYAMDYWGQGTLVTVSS VL: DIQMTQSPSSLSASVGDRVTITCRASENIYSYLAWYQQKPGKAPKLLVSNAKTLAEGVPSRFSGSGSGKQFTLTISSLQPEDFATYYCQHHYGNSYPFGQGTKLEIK", "ECL signal [ECL]": 195}
{"binder": "DR4B6 (antibody, V domains shown, also called L243 re-engineered as IgG2sigma) VH: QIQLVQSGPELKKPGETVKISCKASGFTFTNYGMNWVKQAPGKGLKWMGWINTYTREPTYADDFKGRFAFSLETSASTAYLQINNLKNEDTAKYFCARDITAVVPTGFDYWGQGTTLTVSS VL: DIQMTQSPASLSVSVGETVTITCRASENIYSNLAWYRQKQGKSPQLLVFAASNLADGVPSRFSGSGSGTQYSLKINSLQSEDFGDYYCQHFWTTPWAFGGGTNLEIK", "ECL signal [ECL]": 282}
{"binder": "DR4B4 (antibody, V domains shown, also called Lym-1 re-engineered as IgG2sigma) VH: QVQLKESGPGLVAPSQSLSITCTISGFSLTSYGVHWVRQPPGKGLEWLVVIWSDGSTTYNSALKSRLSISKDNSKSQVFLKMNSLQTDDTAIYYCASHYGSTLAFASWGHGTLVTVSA VL: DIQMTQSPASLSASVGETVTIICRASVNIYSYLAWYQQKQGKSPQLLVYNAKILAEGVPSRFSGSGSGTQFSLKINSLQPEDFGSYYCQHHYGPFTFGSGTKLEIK", "ECL signal [ECL]": 128}
